The reported measurements were obtained from paper PMC6075749.

Biological target: auerolysin (Staphylococcus aureus)
Sequence (P81177 209-509): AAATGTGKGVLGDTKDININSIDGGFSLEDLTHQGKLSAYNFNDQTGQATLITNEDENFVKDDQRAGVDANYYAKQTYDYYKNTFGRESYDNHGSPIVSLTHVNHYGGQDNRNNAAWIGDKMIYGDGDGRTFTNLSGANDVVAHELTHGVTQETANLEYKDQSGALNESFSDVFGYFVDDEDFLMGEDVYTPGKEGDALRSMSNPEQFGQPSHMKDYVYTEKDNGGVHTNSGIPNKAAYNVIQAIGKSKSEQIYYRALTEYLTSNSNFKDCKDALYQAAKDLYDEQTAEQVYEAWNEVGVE
OBSERVABLE: IC50 (nM)
Write the number in nM without appending the unit.

IN: Which IC50 value is on record for CNC(=O)[C@H](Cc1c[nH]c2ccccc12)NC(=O)[C@@H](CC(=O)NO)CC(C)C [Galardin] ?
OUT: 500

###

Target: auerolysin (Staphylococcus aureus)
Construct: purchased BioCentrum Ltd (Kraków, Poland)
Experiment: Initial rate fluorescence assay, auerolysin, substrate Mca-[…](Dnp)-OH (Km, Ki)
Assay type: biochemical
Details: Ki from IC50 (dose response plot, Eq (1))
OBSERVABLE: Ki (nM)
Write the number in nM without appending the unit.

IN: Query Ki on auerolysin (Staphylococcus aureus) for CNC(=O)[C@H](Cc1c[nH]c2ccccc12)NC(=O)[C@@H](CC(=O)NO)CC(C)C
OUT: 450
